System: venous thrombosis
experiment: venous thrombosis test in rats (venous stasis under hypercoagulation with factor Xa, Wessler technique), activity via the oral route
Assay type: in vivo, rat
experimental context: male Wistar rats, dose 6 mg/kg, thrombosis induced 2 h after administration
measure name: Activity (percentage of inhibition of the formation of the thrombus) (%)
Respond numerically; units are % and should not be typed.

Sample answers from the record:
O[C@@H]1[C@@H](O)[C@H](Oc2ccc(-c3ccccn3)cc2)SC[C@H]1O
86
O[C@@H]1[C@@H](O)[C@H](Oc2cc(F)ccc2-c2ccncc2)SC[C@H]1O
71
O[C@@H]1[C@@H](O)[C@H](Oc2cccc(-c3cccnc3)c2)SC[C@H]1O
81
O[C@@H]1[C@@H](O)[C@H](Oc2ccc(-c3ccncc3)cc2)SC[C@H]1O
91

Below: the item to evaluate.
GET /values?readout=Activity (percentage of inhibition of the formation of the thrombus)&item= `O[C@@H]1[C@@H](O)[C@H](Oc2cccc(-c3ccccn3)c2)SC[C@H]1O` 88

meta.source: patent US8013010B2
